Data provenance: patent US20250320184A1

Target: SARM1 (50-724) (Homo sapiens)
Sequence (Q6SZW1 50-724): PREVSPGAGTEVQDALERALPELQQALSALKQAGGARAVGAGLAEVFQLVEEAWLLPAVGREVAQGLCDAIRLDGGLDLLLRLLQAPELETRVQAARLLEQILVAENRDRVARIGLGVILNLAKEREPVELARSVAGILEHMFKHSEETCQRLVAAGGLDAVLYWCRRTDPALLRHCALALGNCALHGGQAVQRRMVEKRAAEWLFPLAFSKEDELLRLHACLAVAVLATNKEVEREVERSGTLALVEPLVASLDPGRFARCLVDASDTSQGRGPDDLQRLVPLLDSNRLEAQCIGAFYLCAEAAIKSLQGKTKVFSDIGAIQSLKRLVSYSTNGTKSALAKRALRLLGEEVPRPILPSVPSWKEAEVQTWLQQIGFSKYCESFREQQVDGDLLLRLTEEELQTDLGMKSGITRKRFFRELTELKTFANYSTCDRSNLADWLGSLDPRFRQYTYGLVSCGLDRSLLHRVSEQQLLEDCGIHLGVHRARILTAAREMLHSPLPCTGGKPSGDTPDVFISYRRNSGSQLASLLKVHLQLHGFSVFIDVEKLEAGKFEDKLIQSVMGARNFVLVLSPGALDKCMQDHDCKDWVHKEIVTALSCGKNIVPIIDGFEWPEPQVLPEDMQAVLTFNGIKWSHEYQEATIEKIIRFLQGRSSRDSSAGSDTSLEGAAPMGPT
Assay: biochemical
IC50 overview

Examples with their reported IC50 follow.
O=S(=O)(Nc1ccc2c(F)n[nH]c2c1)c1cccc(Cl)c1Cl :: < 100 nM
Cc1c(F)cccc1S(=O)(=O)Nc1ccc2c(c1)C(=O)NCCC2 :: 100 to 500 nM
O=c1[nH]cc(Cl)c2ccc(NS(=O)(=O)c3c(Cl)ccc(Cl)c3Cl)cc12 :: < 100 nM
O=C1NCCc2ccc(NS(=O)(=O)N3CCCC4CCCC43)cc21 (mixture of isomers) :: 100 to 500 nM
Cc1n[nH]c(=O)c2cc(NC(C)c3scc(Cl)c3Cl)ccc12 (racemic) :: < 100 nM
Cc1ccc2ccc(NS(=O)(=O)c3cccc(Cl)c3Cl)cc2n1 :: 100 to 500 nM

Sure, the documented IC50 for O=C1NCCc2ccc(NS(=O)(=O)N3C[C@@H]4CC[C@H]3C4)cc21 (racemic) is > 1000 nM

Sure, the documented IC50 for Cc1cccc(S(=O)(=O)Nc2ccc3c(c2)C(=O)NCC3)c1C is 100 to 500 nM

Sure, the documented IC50 for O=C1NCCc2ccc(NS(=O)(=O)N3C4CCCC3CC4)cc21 is > 1000 nM

Sure, the documented IC50 for CC(Nc1ccc2cn[nH]c2c1)c1nc(Cl)c(Cl)s1 (racemic) is < 100 nM

Sure, the documented IC50 for CC(Nc1ccc2ncn(C)c(=O)c2c1)c1cccc(Cl)c1Cl (racemic) is 100 to 500 nM

----------
pIC50 overview
biological target: SARM1 (50-724) (Homo sapiens); experiment: biochemical
pIC50: −log10 of the molar value.

CC(Nc1ccc2c(c1)C(=O)N(CC(N)=O)C2(C)C)c1nc(Cl)c(Cl)s1 (single isomer, unassigned) [Compound 320A] :: < 6.00
NC(=O)Cn1ccc2ccc(NS(=O)(=O)c3cccc(Cl)c3Cl)cc2c1=O [Compound 306] :: > 7.00
CC(Nc1cc(F)c2ncn(CC(N)=O)c(=O)c2c1)c1nc(Cl)c(Cl)s1 (single isomer, unassigned) [Compound 323] :: > 7.00
CC(Nc1cc(F)c2ncn(CC(N)=O)c(=O)c2c1)c1nc(Cl)c(Cl)s1 (single isomer, unassigned) [Compound 323A] :: < 6.00
O=C1NCCc2ccc(NS(=O)(=O)c3cc(F)cc(Br)c3)cc21 [Compound 12] :: < 6.00

Sure, the documented pIC50 for CC(Nc1ccc2c(c1)N(CCO)C(=O)C2(C)C)c1nc(Cl)c(Cl)s1 (racemic) [Compound 277] is > 7.00

Sure, the documented pIC50 for CC(Nc1ccc2cc[nH]c(=O)c2c1)c1nn2c(c1Cl)CCC2 (racemic) [Example 221] is 6.30 to 7.00

Sure, the documented pIC50 for CC(Nc1cc(F)c2nc[nH]c(=O)c2c1)c1nccc(Cl)c1Cl (racemic) [Compound 352] is > 7.00
